Reference source for all entries: patent US7901893B2

target: rhesus brush border membrane vesicles (Macaca mulatta)
readout_type: IC50
Please state the number and follow it with the unit.

Input line: What measured IC50 is associated with O=C(O)[C@H]1O[C@@H](Oc2ccc([C@@H]3[C@@H](CC[C@H](O)c4ccc(F)cc4)C(=O)N3c3ccc(F)cc3)cc2)[C@H](O)[C@@H](O)[C@@H]1O [Compound 1, Ezetimibe glucuronide] on rhesus brush border membrane vesicles (Macaca mulatta)?
Output line: 41 nM

====

biological target: rat brush border membrane vesicles (Rattus norvegicus); construct: from tissue; host or cells: rat (male Sprague-Dawley) small-intestinal mucosa, brush border membrane vesicles; assay: Binding assay with rat brush border membrane vesicles; conditions: 1.5 mg/ml protein, 50 nM 1, 1 hour; read-out: KD at equilibrium by competition of unlabeled compound against 1
readout_type: Kd
Please state the number and follow it with the unit.

Input line: Could you tell me which Kd is on file for O=C(O)[C@H]1O[C@@H](Oc2ccc([C@@H]3[C@@H](CC[C@H](O)c4ccc(F)cc4)C(=O)N3c3ccc(F)cc3)cc2)[C@H](O)[C@@H](O)[C@@H]1O [Compound 1, Ezetimibe glucuronide] ?
Output line: 0.6 µM

====

target: rhesus brush border membrane vesicles (Macaca mulatta, UniProt A0MJA5); test: Binding assay with rhesus brush border membrane vesicles; conditions: KD (nM), Table 11, monkey, absence of detergents
Sequence (A0MJA5 1-1332): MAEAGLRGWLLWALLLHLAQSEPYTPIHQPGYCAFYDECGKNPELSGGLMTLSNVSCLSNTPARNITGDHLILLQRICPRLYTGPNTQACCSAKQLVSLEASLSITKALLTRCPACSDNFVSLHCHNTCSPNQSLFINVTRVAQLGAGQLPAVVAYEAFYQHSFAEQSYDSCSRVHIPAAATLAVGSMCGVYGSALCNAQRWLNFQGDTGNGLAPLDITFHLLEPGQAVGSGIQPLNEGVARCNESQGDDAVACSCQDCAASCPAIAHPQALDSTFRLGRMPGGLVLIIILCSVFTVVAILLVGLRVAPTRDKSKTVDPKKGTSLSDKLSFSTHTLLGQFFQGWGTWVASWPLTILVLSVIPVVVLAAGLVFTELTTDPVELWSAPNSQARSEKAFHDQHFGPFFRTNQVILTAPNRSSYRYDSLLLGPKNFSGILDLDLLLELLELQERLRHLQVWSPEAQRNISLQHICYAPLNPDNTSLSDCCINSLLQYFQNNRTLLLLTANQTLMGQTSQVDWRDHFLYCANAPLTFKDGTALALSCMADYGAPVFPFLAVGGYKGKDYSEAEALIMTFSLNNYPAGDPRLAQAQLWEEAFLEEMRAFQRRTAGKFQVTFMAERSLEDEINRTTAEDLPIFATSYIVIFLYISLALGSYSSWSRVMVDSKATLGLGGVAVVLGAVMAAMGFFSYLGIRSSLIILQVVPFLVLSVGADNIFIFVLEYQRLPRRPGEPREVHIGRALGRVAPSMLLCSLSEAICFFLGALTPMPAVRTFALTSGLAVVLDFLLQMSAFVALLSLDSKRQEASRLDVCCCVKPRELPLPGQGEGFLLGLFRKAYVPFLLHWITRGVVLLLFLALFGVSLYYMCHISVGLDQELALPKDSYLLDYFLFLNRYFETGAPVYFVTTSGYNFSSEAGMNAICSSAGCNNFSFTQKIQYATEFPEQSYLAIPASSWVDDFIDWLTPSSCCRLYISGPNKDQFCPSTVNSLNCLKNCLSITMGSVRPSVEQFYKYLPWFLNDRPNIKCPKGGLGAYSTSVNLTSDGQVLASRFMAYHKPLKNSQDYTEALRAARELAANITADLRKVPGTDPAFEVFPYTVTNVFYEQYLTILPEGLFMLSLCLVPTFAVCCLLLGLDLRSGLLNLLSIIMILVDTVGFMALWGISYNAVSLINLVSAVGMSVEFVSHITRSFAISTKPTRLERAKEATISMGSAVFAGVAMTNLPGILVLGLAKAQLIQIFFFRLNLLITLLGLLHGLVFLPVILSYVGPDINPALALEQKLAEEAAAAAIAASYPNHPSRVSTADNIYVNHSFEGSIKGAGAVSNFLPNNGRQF
readout_type: Kd (nM)
Enter your answer as a number in nM; do not include the unit.

Input line: Could you tell me which Kd is on file for O=C1[C@H](CC[C@H](O)c2ccc(F)cc2)[C@@H](c2ccc(O)cc2)N1c1ccc(F)cc1 ?
Output line: 41

====

target: mouse intestinal brush border membranes (Mus musculus, UniProt Q6T3U4)
readout_type: pIC50
Formally, pIC50 is defined as -log10 of the concentration c, with c in mol/L.

Input line: What measured pIC50 is associated with O=C(O)[C@H]1O[C@@H](Oc2ccc([C@@H]3[C@@H](CC[C@H](O)c4ccc(F)cc4)C(=O)N3c3ccc(F)cc3)cc2)[C@H](O)[C@@H](O)[C@@H]1O [Compound 1, Ezetimibe glucuronide] on mouse intestinal brush border membranes (Mus musculus, UniProt Q6T3U4)?
Output line: 4.92

====

molecular target: rat brush border membrane vesicles (Rattus norvegicus, UniProt Q6T3U3); construct: from tissue; host or cells: rat (male Sprague-Dawley) small-intestinal mucosa, brush border membrane vesicles; assay: Binding assay with rat brush border membrane vesicles; settings: rat; read-out: in vitro binding affinity (IC50)
readout_type: IC50 (nM)
Enter your answer as a number in nM; do not include the unit.

Input line: Could you tell me which IC50 is on file for O=C(O)[C@H]1O[C@@H](Oc2ccc([C@@H]3[C@@H](CC[C@H](O)c4ccc(F)cc4)C(=O)N3c3ccc(F)cc3)cc2)[C@H](O)[C@@H](O)[C@@H]1O [Compound 1, Ezetimibe glucuronide] ?
Output line: 542

====

# maps each entry to its Ki
molecular target: rat brush border membrane vesicles (Rattus norvegicus, UniProt Q6T3U3); construct: from tissue; host or cells: rat (male Sprague-Dawley) small-intestinal mucosa, brush border membrane vesicles; assay: Binding assay with rat brush border membrane vesicles; details: 0.03% sodium taurocholate and 0.05% digitonin; 1.25 mg protein/ml, 100 nM 1; read-out: Rat BBM Ki
Enter your answer as a number in µM; do not include the unit.

{"molecule": "O=C(O)[C@H]1O[C@@H](Oc2ccc([C@@H]3[C@@H](CC[C@H](O)c4ccc(F)cc4)C(=O)N3c3ccc(F)cc3)cc2)[C@H](O)[C@@H](O)[C@@H]1O [Compound 1, Ezetimibe glucuronide]", "target_or_system": "rat brush border membrane vesicles (Rattus norvegicus, UniProt Q6T3U3)", "unit_label": "µM", "Ki": 0.39}

Input line: Could you tell me which Ki is on file for O=C(CC[C@H]1C(=O)N(c2ccc(F)cc2)[C@@H]1c1ccc(O[C@@H]2O[C@H](C(=O)O)[C@@H](O)[C@H](O)[C@H]2O)cc1)c1ccc(F)cc1 ?
Output line: 33

Input line: Could you tell me which Ki is on file for O=C(O)C1OC(Oc2ccc(C3C(CCC(O)c4ccc(F)cc4)C(=O)N3c3ccc(F)cc3)cc2)C(O)C(O)C1O (single isomer, unassigned) ?
Output line: 130

====

target: mouse intestinal brush border membranes (Mus musculus, UniProt Q6T3U4); construct: from tissue; host or cells: mouse small-intestinal mucosa (C57BL/6J; wild-type littermates in the knockout comparison), brush border membrane vesicles; test: Binding assay with mouse (wild type) brush border membrane vesicles; settings: control (wild type) mouse membranes, 4 nM ^35S-2, 3 hours at 37° C.
readout_type: pKd
Formally, pKd is defined as -log10 of the concentration c, with c in mol/L.

Input line: What measured pKd is associated with CS(=O)(=O)NCC#Cc1ccc(N2C(=O)[C@H](CC[C@H](O)c3ccc(F)cc3)[C@H]2c2ccc(O[C@@H]3O[C@H](C(=O)O)[C@@H](O)[C@H](O)[C@H]3O)cc2)cc1 on mouse intestinal brush border membranes (Mus musculus, UniProt Q6T3U4)?
Output line: 6.81

====

target: rat brush border membrane vesicles (Rattus norvegicus, UniProt Q6T3U3); construct: from tissue; host or cells: rat (male Sprague-Dawley) small-intestinal mucosa, brush border membrane vesicles; assay: Binding assay with rat brush border membrane vesicles; details: Table 11, rat, absence of detergents; read-out: KD
readout_type: pKd
Formally, pKd is defined as -log10 of the concentration c, with c in mol/L.

Input line: Could you tell me which pKd is on file for O=C1[C@H](CC[C@H](O)c2ccc(F)cc2)[C@@H](c2ccc(O)cc2)N1c1ccc(F)cc1 ?
Output line: 6.27
